So I've got a bunch of compounds here, and I need their 2ED50 duration values.
- Test system: KM mice
- procedure-text: animal or person
- Assay type: in vivo
- conditions-used: KM mice, single tail vein injection at 2×ED50; time from disappearance to recovery of righting reflex
Numbers only, in min.

Field: example entries. Status: answers known.
* C/C=C/C1CC(OCOC(=O)COC(=O)CC[C@@H]2N=C(c3ccccn3)c3cc(Br)c(Cl)cc3-n3c(C)cnc32)C(Br)CC1C(F)(F)F (stereo partly shown) | 3.16
* CCCOC(=O)OCOC(=O)CC[C@@H]1N=C(c2ccccn2)c2c(ccc(Br)c2F)-n2c(C)cnc21 | 3.12
* CCOC(=O)OC(C)OC(=O)CC[C@@H]1N=C(c2ccccn2)c2cc(Br)ccc2-n2c(C)cnc21 (stereo partly shown) | 8.52

For the next question, use this compound.
Request: # return recorded 2ED50 duration for entry COC(=O)C(C)(C)OC(=O)CC[C@@H]1N=C(c2ccccn2)c2cc(Br)c(Cl)cc2-n2c(C)cnc21
Result: 1.50

---

So I've got a bunch of compounds here, and I need their 2ED50 duration values.
- Tested on: KM mice
- procedure-text: animal or person
- Assay type: in vivo
- conditions-used: KM mice, single tail vein injection at 2×ED50; time from disappearance to recovery of righting reflex
Give bare numbers, in min.

Provide 2ED50 duration for all items below, preserving their order.
1. COC(=O)C(OC(=O)CC[C@@H]1N=C(c2ccccn2)c2cc(Br)c(OC(F)(F)F)c(C)c2-n2c(C)cnc21)C1CCSC1 (some centres unmarked)
2. CCOC(=O)COC(=O)CC[C@@H]1N=C(c2ccccn2)c2cc(Cl)c(OC(F)(F)F)cc2-n2c(C)cnc21
3. COc1cc(C)cc2c1-n1c(C)cnc1[C@H](CCC(=O)OC1(C(=O)OC(C)C)CC1)N=C2c1ccccn1
4. Cc1cnc2n1-c1cc(Br)c(Br)cc1C(c1ccccn1)=N[C@H]2CCC(=O)OCOC(=O)OC(C)C
5. CCOC(=O)COC(=O)CC[C@@H]1N=C(c2ccccn2)c2cc(Br)ccc2-n2c(C)cnc21

Result:
3.42
0.52
3.56
5.12
3.90

---

- Tested on: SD rats
- procedure-text: animal or person
- Format: in vivo
- conditions-used: SD rats, single tail vein injection at 2×ED50; time from disappearance to recovery of righting reflex
# binarize 2ED50 duration: threshold 4 min inclusive, high side criterion met, low side criterion not met

Field: example entries. Status: answers known.
* Cc1cnc2n1-c1ccc(Br)cc1C(c1ccccn1)=N[C@H]2CCC(=O)OCOC(=O)OC(C)(C)C | criterion not met
* COC(=O)C1(OC(=O)CC[C@@H]2N=C(c3ccccn3)c3cc(Cl)c(Cl)c(Cl)c3-n3c(C)cnc32)CC1 | criterion not met
* Cc1cnc2n1-c1cc(Br)c(Cl)cc1C(c1ccncc1)=N[C@H]2CCC(=O)OCOC(=O)OC(C)(C)C | criterion not met
* CCOC(=O)OC(C)OC(=O)CC[C@@H]1N=C(c2ccccn2)c2cc(Br)ccc2-n2c(C)cnc21 (stereo partly drawn) | criterion not met
* CCOC(=O)OCOC(=O)CC[C@@H]1N=C(c2ccccn2)c2ccc(Cl)cc2-n2c(C)cnc21 | criterion not met
* CC(=O)O.COC(=O)C1(OC(=O)CC[C@@H]2N=C(c3ccccn3)c3cc(Cl)c(OC(F)(F)F)cc3-n3c(C)cnc32)CC1 | criterion not met
* Cc1cnc2n1-c1cc(Br)c(Br)cc1C(c1ccccn1)=N[C@H]2CCC(=O)OCOC(=O)OC(C)C | criterion met
* COC(=O)C(C)OC(=O)CC[C@@H]1N=C(c2ccccn2)c2cc(Br)ccc2-n2c(C)cnc21 (stereo partly drawn) | criterion not met

Request: Dear colleague, could you confirm whether CCOC(=O)C1(OC(=O)CC[C@@H]2N=C(c3ccccn3)c3cc(Br)ccc3-n3c(C)cnc32)CC1 has 2ED50 duration at or above 4 min?
Result: criterion met

Request: Dear colleague, could you confirm whether Cc1cnc2n1-c1ccc(Br)cc1C(c1ccccn1)=N[C@H]2CCC(=O)OCOC(=O)OC(C)C has 2ED50 duration at or above 4 min?
Result: criterion met

Request: Dear colleague, could you confirm whether COC(=O)C1(OC(=O)CC[C@@H]2N=C(c3ccccn3)c3cc(Br)c(Br)cc3-n3c(C)cnc32)CC1 has 2ED50 duration at or above 4 min?
Result: criterion met

---

- System: KM mice
- procedure-text: animal or person
- Type: in vivo
- conditions-used: KM mice, single tail vein injection at 2×ED50; time from disappearance to recovery of righting reflex
So I've got a bunch of molecules here, and I need their 2ED50 duration values.
Answers are plain numbers, in min.

* Cc1cnc2n1-c1cc(C(F)(F)F)c(Cl)cc1C(c1cccnc1)=N[C@H]2CCC(=O)OCOC(=O)OC(C)C [Example 32] | 4.34
* COC(=O)C1(OC(=O)CC[C@@H]2N=C(c3ccccn3)c3c(Cl)cc(C(F)(F)F)cc3-n3c(C)cnc32)CC1 [Example 39] | 5.09
* Cc1cnc2n1-c1cc(Br)c(Br)cc1C(c1ccccn1)=N[C@H]2CCC(=O)OCOC(=O)OC(C)C(C)C (some centres unmarked) [Example 13] | 5.22
* COC(=O)C(C)OC(=O)CC[C@@H]1N=C(c2ccccn2)c2cc(Br)c(Br)cc2-n2c(C)cnc21 (some centres unmarked) [Example 22] | 5.58
* CCOC(=O)C1(OC(=O)CC[C@@H]2N=C(c3ccccn3)c3cc(Br)c(Br)cc3-n3c(C)cnc32)CC1 [Example 19] | 6.07

Provide 2ED50 duration for all items below, preserving their order.
1. CCOC(=O)C(C)(C)OC(=O)CC[C@@H]1N=C(c2ccccn2)c2c(cc(C)c(Cl)c2C)-n2c(C)cnc21 [Example 77]
2. CCOC(=O)COC(=O)CC[C@@H]1N=C(c2ccccn2)c2cccc(Cl)c2-n2c(C)cnc21 [Example 37]
3. Cc1cnc2n1-c1cc(Br)c(Br)cc1C(c1ccccn1)=N[C@H]2CCC(=O)OC(C)OC(=O)OC(C)C (some centres unmarked) [Example 17]
4. COC(=O)C(C)OC(=O)CC[C@@H]1N=C(c2ccccn2)c2cc(Br)ccc2-n2c(C)cnc21 (some centres unmarked) [Example 60]

Result:
1: 3.28; 2: 4.42; 3: 4.39; 4: 2.46

Provide 2ED50 duration for all items below, preserving their order.
1. Cc1cnc2n1-c1c(Cl)c(Cl)c(Cl)c(Cl)c1C(c1ccccn1)=N[C@H]2CCC(=O)OCOC(=O)OC(C(C)C)C(C)C [Example 31]
2. COC(=O)C(CC(F)C(C)(C)OC(=O)CC[C@@H]1N=C(c2ccccn2)c2cc(Br)c(OC)cc2-n2c(C)cnc21)OC (some centres unmarked) [Example 67]
3. COC(=O)OC(C)OC(=O)CC[C@@H]1N=C(c2ccccn2)c2cc(Br)ccc2-n2c(C)cnc21 (some centres unmarked) [Example 53]

Result:
1. 2.13
2. 2.58
3. 3.61

Provide 2ED50 duration for all items below, preserving their order.
1. COC(=O)C(C)(C)OC(=O)CC[C@@H]1N=C(c2ccccn2)c2cc(Br)ccc2-n2c(C)cnc21 [Example 62]
2. COC(=O)OCOC(=O)CC[C@@H]1N=C(c2ccccn2)c2cc(Br)ccc2-n2c(C)cnc21 [Example 34]
3. Cc1cnc2n1-c1ccc(Br)cc1C(c1ccccn1)=N[C@H]2CCC(=O)OCOC(=O)OC(C)C [Example 48]
4. CCOC(=O)OCOC(=O)CC[C@@H]1N=C(c2ccccn2)c2ccc(Cl)cc2-n2c(C)cnc21 [Example 36]
5. CC(=O)O.COC(=O)C1(OC(=O)CC[C@@H]2N=C(c3ccccn3)c3cc(Cl)c(OC(F)(F)F)cc3-n3c(C)cnc32)CC1 [Example 42]
6. COC(=O)OCOC(=O)CC[C@@H]1N=C(c2ccccn2)c2cc(Br)c(Br)cc2-n2c(C)cnc21 [Example 8]
7. CCOC(=O)C1(OC(=O)CC[C@@H]2N=C(c3ccccn3)c3cc(F)c(C)cc3-n3c(C)cnc32)CC1 [Example 26]
8. COC(=O)C1(OC(=O)CC[C@@H]2N=C(c3ccccn3)c3cc(Br)ccc3-n3c(C)cnc32)CC1 [Example 58]

Result:
1: 3.23; 2: 1.31; 3: 8.56; 4: 4.34; 5: 0.58; 6: 5.23; 7: 4.38; 8: 3.18

Provide 2ED50 duration for all items below, preserving their order.
1. CCOC(=O)COC(=O)CC[C@@H]1N=C(c2ccccn2)c2cc(Br)c(Br)cc2-n2c(C)cnc21 [Example 21]
2. COC(=O)COC(=O)CC[C@@H]1N=C(c2ccccn2)c2cc(F)c(OC)cc2-n2c(C)cnc21 [Example 27]
3. Cc1cnc2n1-c1ccc(Br)cc1C(c1ccccn1)=N[C@H]2CCC(=O)OCOC(=O)OC(C)(C)C [Example 49]
4. CCOC(=O)C(C)OC(=O)CC[C@@H]1N=C(c2ccccn2)c2cc(C)c(OC)cc2-n2c(C)cnc21 (some centres unmarked) [Example 81]
5. CCC(CC)OC(=O)OCOC(=O)CC[C@@H]1N=C(c2ccccn2)c2cc(Br)c(Br)cc2-n2c(C)cnc21 [Example 12]
6. CCCOC(=O)C1(OC(=O)CC[C@@H]2N=C(c3ccccn3)c3c(cc(OC(F)(F)F)c(Cl)c3C)-n3c(C)cnc32)CC1 [Example 75]
7. Cc1cnc2n1-c1cc(Br)c(Br)cc1C(c1ccccn1)=N[C@H]2CCC(=O)OC1(C(=O)OOC2CC(Cl)C2)CC1 (some centres unmarked) [Example 64]
8. Cc1cnc2n1-c1cc(Br)c(Cl)cc1C(c1ccncc1)=N[C@H]2CCC(=O)OCOC(=O)OC(C)(C)C [Example 33]

Result:
1. 3.08
2. 1.46
3. 2.65
4. 3.49
5. 5.32
6. 3.53
7. 3.09
8. 3.21

Where these numbers come from: patent US12473291B2
